Target: K-Ras G13C (Homo sapiens (Human), UniProt P01116+P62937, G13C)
Sequence (P01116-2 other isoform, or with tags, fused parts or gaps G13C): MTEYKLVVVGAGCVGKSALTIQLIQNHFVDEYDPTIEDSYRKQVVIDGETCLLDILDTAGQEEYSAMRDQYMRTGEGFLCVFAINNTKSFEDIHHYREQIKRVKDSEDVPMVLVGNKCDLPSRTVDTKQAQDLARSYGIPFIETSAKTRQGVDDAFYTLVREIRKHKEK
Sequence (P62937 whole entry): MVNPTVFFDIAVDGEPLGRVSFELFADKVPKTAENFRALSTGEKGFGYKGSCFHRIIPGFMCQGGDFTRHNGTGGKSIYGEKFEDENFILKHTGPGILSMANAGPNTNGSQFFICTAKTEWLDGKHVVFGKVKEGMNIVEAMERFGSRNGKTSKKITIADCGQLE
Assay: Ras-Raf (BRAF RBD) disruption / FRET / MOA assay, KRAS G13C
Type: biochemical
Conditions: KRAS G13C; Ras-Raf disruption/FRET/MOA assay; read-out: IC50* KRAS G13C FRET data
pIC50: −log10 of the molar value.
# pIC50 per record follows
observable: pIC50

{"compound": "C=CC(=O)N1CCO[C@H]2CN(C(=O)N(C)[C@H](C(=O)N[C@H]3CC4=NN=C(O4)c4ccc5c(c4)c(c(-c4cccnc4[C@H](C)OC)n5CC(F)(F)F)CC(C)(C)COC(=O)[C@@H]4CCCN(N4)C3=O)C(C)C)C[C@H]21 (atropisomer, axis not shown) [Example A576]", "observable": "pIC50", "observed": "6.00 to 7.00"}
{"compound": "CCn1c(-c2cccnc2[C@H](C)OC)c2c3cc(ccc31)-c1cccc(c1)C[C@H](NC(=O)[C@H](C(C)C)N1CC[C@]3(CCN(C(=O)C#C[C@H]4COCCN4C)C3)C1=O)C(=O)N1CCC[C@H](N1)C(=O)OCC(C)(C)C2 (atropisomer, axis not shown) [Example A592]", "observable": "pIC50", "observed": "5.00 to 6.00"}
{"compound": "CO[C@@H](C)c1ncccc1-c1c2c3cc(ccc3n1CC(F)(F)F)-c1cccc(c1)CN(NC(=O)[C@@H](COC1CN(C(=O)C#CC(C)(C)N(C)C)C1)C(C)C)C(=O)N1CCC[C@H](N1)C(=O)OCC(C)(C)C2 (atropisomer, axis not shown) [Example A601]", "observable": "pIC50", "observed": "6.00 to 7.00"}
{"compound": "CC#CC(=O)N1C[C@H](C)[C@H](C(=O)N(C)[C@H](C(=O)N[C@H]2Cc3cccc(c3)-c3ccc4c(c3)c(c(-c3cccnc3[C@H](C)OC)n4CC)CC(C)(C)COC(=O)[C@@H]3CCCN(N3)C2=O)C(C)C)C1 (atropisomer, axis not shown) [Example A413]", "observable": "pIC50", "observed": "5.00 to 6.00"}

---

Reported pIC50 values are given for each entry in this list.
Target: KRAS G12S (Homo sapiens (Human), UniProt P01116+P62937, G12S)
Sequence (P01116-2 other isoform, or with tags, fused parts or gaps G12S, one chain of several): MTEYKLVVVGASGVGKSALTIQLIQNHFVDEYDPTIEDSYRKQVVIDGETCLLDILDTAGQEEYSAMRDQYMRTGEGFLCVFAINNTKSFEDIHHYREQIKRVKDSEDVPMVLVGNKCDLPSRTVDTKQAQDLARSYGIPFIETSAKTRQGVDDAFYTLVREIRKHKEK
Assay: Ras-Raf (BRAF RBD) disruption / FRET / MOA assay, KRAS G12S
Type: biochemical
Conditions: Ras-Raf disruption/FRET/MOA assay; class symbols; read-out: KRAS G12S FRET data IC50
pIC50: −log10 of the molar value.

{"compound": "C=CC(=O)N1CCC2(CCN(C(=O)N(C)[C@H](C(=O)N[C@H]3Cc4nc(cs4)-c4ccc5c(c4)c(c(-c4cccnc4[C@H](C)OC)n5CC)CC(C)(C)COC(=O)[C@@H]4CCCN(N4)C3=O)C(C)C)CC2)C1 (atropisomer, axis not shown)", "assay target": "KRAS G12S (Homo sapiens (Human), UniProt P01116+P62937, G12S)", "pIC50": "6.00 to 7.00"}
{"compound": "CCn1c(-c2cccnc2[C@H](C)OC)c2c3cc(ccc31)-c1cccc(c1)C[C@H](NC(=O)[C@H](C(C)C)N(C)C(=O)[C@H]1CCN(C(=O)/C=C/CN3CC(OC)C3)C1)C(=O)N1CCC[C@H](N1)C(=O)OCC(C)(C)C2 (atropisomer, axis not shown) [Example A204]", "assay target": "KRAS G12S (Homo sapiens (Human), UniProt P01116+P62937, G12S)", "pIC50": "5.00 to 6.00"}
{"compound": "C=CC(=O)N1CC[C@H](C(=O)N(C)[C@H](C(=O)N[C@H]2Cc3cc(O)cc(c3)-c3ccc4c(c3)c(c(-c3cncs3)n4CC)CC(C)(C)COC(=O)[C@@H]3CCCN(N3)C2=O)C(C)C)C1", "assay target": "KRAS G12S (Homo sapiens (Human), UniProt P01116+P62937, G12S)", "pIC50": "5.00 to 6.00"}
{"compound": "C=CC(=O)N1CCO[C@H]2CN(C(=O)N(C)[C@H](C(=O)N[C@H]3CC4=NN=C(O4)c4ccc5c(c4)c(c(-c4cccnc4[C@H](C)OC)n5CC(F)(F)F)CC(C)(C)COC(=O)[C@@H]4CCCN(N4)C3=O)C(C)C)C[C@H]21 (atropisomer, axis not shown)", "assay target": "KRAS G12S (Homo sapiens (Human), UniProt P01116+P62937, G12S)", "pIC50": "< 5.00"}
{"compound": "CCn1c(-c2cccnc2[C@H](C)OC)c2c3cc(ccc31)-c1cccc(c1)C[C@H](NC(=O)[C@H](C(C)C)N1CO[C@@]3(CCN(C(=O)/C=C/CN(C)C)C3)C1=O)C(=O)N1CCC[C@H](N1)C(=O)OCC(C)(C)C2 (atropisomer, axis not shown)", "assay target": "KRAS G12S (Homo sapiens (Human), UniProt P01116+P62937, G12S)", "pIC50": "6.00 to 7.00"}
{"compound": "CCn1c(-c2cccnc2)c2c3cc(ccc31)-c1csc(n1)C[C@H](NC(=O)[C@H](C(C)C)N(C)C(=O)[C@H]1CCN(C(=O)C#CCN3CCOCC3)C1)C(=O)N1CCC[C@H](N1)C(=O)OCC(C)(C)C2", "assay target": "KRAS G12S (Homo sapiens (Human), UniProt P01116+P62937, G12S)", "pIC50": "< 5.00"}
{"compound": "CCn1c(-c2cccnc2[C@H](C)OC)c2c3cc(ccc31)-c1cccc(n1)C[C@H](NC(=O)[C@H](C(C)C)N(C)C(=O)N1CCC13CN(C(=O)C#CC(C)(C)N(C)C)C3)C(=O)N1CCC[C@H](N1)C(=O)OCC(C)(C)C2 (atropisomer, axis not shown)", "assay target": "KRAS G12S (Homo sapiens (Human), UniProt P01116+P62937, G12S)", "pIC50": "5.00 to 6.00"}
{"compound": "C=CC(=O)N1CCO[C@H]2CN(C(=O)N(C)[C@H](C(=O)N[C@H]3Cc4cccc(n4)-c4ccc5c(c4)c(c(-c4cccnc4[C@H](C)OC)n5CC)CC(C)(C)COC(=O)[C@@H]4CCCN(N4)C3=O)C(C)C)C[C@H]21 (atropisomer, axis not shown)", "assay target": "KRAS G12S (Homo sapiens (Human), UniProt P01116+P62937, G12S)", "pIC50": "5.00 to 6.00"}
{"compound": "CO[C@@H](C)c1ncccc1-c1c2c3cc(ccc3n1CC(F)(F)F)-c1cccc(c1)C[C@H](NC(=O)[C@H](C(C)C)N1CC[C@]3(CCN(C(=O)C#CC(C)(C)N(C)C)C3)C1=O)C(=O)N1CCC[C@H](N1)C(=O)OCC(C)(C)C2 (atropisomer, axis not shown)", "assay target": "KRAS G12S (Homo sapiens (Human), UniProt P01116+P62937, G12S)", "pIC50": "6.00 to 7.00"}
{"compound": "C=CC(=O)N1CC[C@H](C(=O)N(C)[C@H](C(=O)N[C@H]2Cc3cc(O)cc(c3)-c3ccc4c(c3)c(c(-c3cnccc3[C@H](C)OC)n4CC)CC(C)(C)COC(=O)[C@@H]3CCCN(N3)C2=O)C(C)C)C1", "assay target": "KRAS G12S (Homo sapiens (Human), UniProt P01116+P62937, G12S)", "pIC50": "5.00 to 6.00"}
{"compound": "C=CC(=O)N1C[C@@H](C)N(C(=O)N(C)[C@H](C(=O)N[C@H]2Cc3nc(cs3)-c3ccc4c(c3)c(c(-c3cccnc3[C@H](C)OC)n4CC)CC(C)(C)COC(=O)[C@@H]3CCCN(N3)C2=O)C(C)C)C[C@@H]1C (atropisomer, axis not shown)", "assay target": "KRAS G12S (Homo sapiens (Human), UniProt P01116+P62937, G12S)", "pIC50": "7.00 to 8.00"}
{"compound": "C=CC(=O)N1C[C@H](C)N(C(=O)N(C)[C@H](C(=O)N[C@H]2Cc3nc(cs3)-c3ccc4c(c3)c(c(-c3cccnc3[C@H](C)OC)n4CC)CC(C)(C)COC(=O)[C@@H]3CCCN(N3)C2=O)C(C)C)C[C@@H]1C (atropisomer, axis not shown)", "assay target": "KRAS G12S (Homo sapiens (Human), UniProt P01116+P62937, G12S)", "pIC50": "7.00 to 8.00"}
{"compound": "C=CC(=O)N1CCC(F)(C(=O)N(C)[C@H](C(=O)N[C@H]2Cc3nc(cs3)-c3ccc4c(c3)c(c(-c3cccnc3[C@H](C)OC)n4CC)CC(C)(C)COC(=O)[C@@H]3CCCN(N3)C2=O)C(C)C)CC1 (atropisomer, axis not shown)", "assay target": "KRAS G12S (Homo sapiens (Human), UniProt P01116+P62937, G12S)", "pIC50": "6.00 to 7.00"}
{"compound": "C=CC(=O)N1CCN(C(=O)N(C)[C@H](C(=O)N[C@H]2Cc3nc(cs3)-c3ccc4c(c3)c(c(-c3cccnc3[C@H](C)OC)n4CC)CC(C)(C)COC(=O)[C@@H]3CCCN(N3)C2=O)C(C)C)CC1 (atropisomer, axis not shown) [Example A491]", "assay target": "KRAS G12S (Homo sapiens (Human), UniProt P01116+P62937, G12S)", "pIC50": "7.00 to 8.00"}
{"compound": "CCn1c(-c2cccnc2COC)c2c3cc(ccc31)-c1cc(C)cc(c1)C[C@H](NC(=O)[C@H](C(C)C)N(C)C(=O)[C@H]1CCN(C(=O)C#CCN(C)C)C1)C(=O)N1CCC[C@H](N1)C(=O)OCC(C)(C)C2 [Example A157]", "assay target": "KRAS G12S (Homo sapiens (Human), UniProt P01116+P62937, G12S)", "pIC50": "< 5.00"}

Taken from patent US11566007B2.
